Reference for the values: paper PMC9667936

test target: 14-3-3γ (Homo sapiens)
Construct: made in house; host or cells: E. coli NiCo21 (DE3)
Sequence (P61981 whole entry): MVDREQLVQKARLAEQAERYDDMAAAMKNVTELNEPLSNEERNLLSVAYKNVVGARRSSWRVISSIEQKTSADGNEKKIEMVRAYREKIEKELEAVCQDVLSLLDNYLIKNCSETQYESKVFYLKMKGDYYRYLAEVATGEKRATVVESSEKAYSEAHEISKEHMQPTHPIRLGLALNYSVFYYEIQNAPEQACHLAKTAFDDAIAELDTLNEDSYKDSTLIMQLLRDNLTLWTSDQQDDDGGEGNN
protocol: Isothermal titration calorimetry (ITC) of 14-3-3 binding to peptide
particulars: Table S6; ITC, 25 °C; run 1
Procedure: 14-3-3γ protein expression (FP/ITC experiments) A pPROEX HTb expression vector encoding the human 14-3-3 protein gamma (14-3-3γ) with an N-terminal his6-tag was transformed by heat shock into NiCo21 (DE3) competent cells. […] 0 ms; gain: optimal; and Z-position: calculated from well). […] Measurements were performed directly after plate preparation, using a Tecan Infinite F500 plate reader at room temperature (lex: 485 ± 20 nm; lem: 535 ± 25 nm; mirror: Dichroic 510; flashes: 20; integration […]
Where a SMILES comes first, the peptide text is derived from it. [ ]: non-standard residue; d: D form. ξ: configuration not given here. Phe(4-NO2) = N[C@@H](Cc1ccc([N+](=O)[O-])cc1)C(=O)O; ξAla(4-thiazolyl) = NC(Cc1cscn1)C(=O)O; pS = N[C@@H](COP(=O)(O)O)C(=O)O; β3hS = N[C@@H](CO)CC(=O)O; Nva = CCC[C@H](N)C(=O)O; ξβ3hS = NC(CO)CC(=O)O; βAla = NCCC(=O)O
experimental endpoint: ΔH

Guide cases for ΔH, answers given:
molecule	ΔH
CCC[C@H](NC(=O)[C@H](N)CCCCN)C(=O)N[C@@H](Cc1ccc([N+](=O)[O-])cc1)C(=O)NC(Cc1cscn1)C(=O)N[C@@H](COP(=O)(O)O)C(=O)N[C@@H](Cc1ccc([N+](=O)[O-])cc1)C(=O)NC(CO)CC(=O)NCCC(=O)N[C@@H](Cc1ccc([N+](=O)[O-])cc1)C(=O)N[C@@H](CCCCN)C(N)=O (stereo partly drawn) [compound 1] (H-[dK][Nva][Phe(4-NO2)][ξAla(4-thiazolyl)][pS][Phe(4-NO2)][ξβ3hS][βAla][Phe(4-NO2)]K-NH2)	-10,96 kcal mol^-1
CCC[C@H](NC(=O)[C@H](N)CCCCN)C(=O)N[C@@H](Cc1ccc([N+](=O)[O-])cc1)C(=O)NC(Cc1cscn1)C(=O)N[C@@H](COP(=O)(O)O)C(=O)N[C@@H](Cc1ccc([N+](=O)[O-])cc1)C(=O)N[C@@H](CO)CC(=O)NCCC(=O)N[C@@H](Cc1ccccc1)C(=O)N[C@@H](CCCCN)C(N)=O (stereo partly drawn) [5b] (H-[dK][Nva][Phe(4-NO2)][ξAla(4-thiazolyl)][pS][Phe(4-NO2)][β3hS][βAla]FK-NH2; N-terminus and C-terminus assumed)	-4,716 kcal mol^-1
CCC[C@H](NC(=O)[C@H](N)CCCCN)C(=O)N[C@@H](Cc1ccc([N+](=O)[O-])cc1)C(=O)NC(Cc1cscn1)C(=O)N[C@@H](COP(=O)(O)O)C(=O)N[C@@H](C)C(=O)N[C@@H](CO)CC(=O)NCCC(=O)N[C@@H](Cc1ccc([N+](=O)[O-])cc1)C(=O)N[C@@H](CCCCN)C(N)=O (stereo partly drawn) [4c] (H-[dK][Nva][Phe(4-NO2)][ξAla(4-thiazolyl)][pS]A[β3hS][βAla][Phe(4-NO2)]K-NH2; N-terminus and C-terminus assumed)	-4,976 kcal mol^-1
CCC[C@H](NC(=O)[C@H](N)CCCCN)C(=O)N[C@@H](Cc1ccc([N+](=O)[O-])cc1)C(=O)NC(Cc1cscn1)C(=O)N[C@@H](COP(=O)(O)O)C(=O)N[C@@H](Cc1ccc(O)cc1)C(=O)N[C@@H](CO)CC(=O)NCCC(=O)N[C@@H](Cc1ccc([N+](=O)[O-])cc1)C(=O)N[C@@H](CCCCN)C(N)=O (stereo partly drawn) [4a] (H-[dK][Nva][Phe(4-NO2)][ξAla(4-thiazolyl)][pS]Y[β3hS][βAla][Phe(4-NO2)]K-NH2; N-terminus and C-terminus assumed)	-5,83 kcal mol^-1
CCC[C@H](NC(=O)[C@H](N)CCCCN)C(=O)N[C@@H](Cc1ccc([N+](=O)[O-])cc1)C(=O)NC(Cc1cscn1)C(=O)N[C@@H](COP(=O)(O)O)C(=O)N[C@@H](Cc1ccccc1)C(=O)N[C@@H](CO)CC(=O)NCCC(=O)N[C@@H](Cc1ccc([N+](=O)[O-])cc1)C(=O)N[C@@H](CCCCN)C(N)=O (stereo partly drawn) [4b] (H-[dK][Nva][Phe(4-NO2)][ξAla(4-thiazolyl)][pS]F[β3hS][βAla][Phe(4-NO2)]K-NH2; N-terminus and C-terminus assumed)	-8,024 kcal mol^-1

Below: the item to evaluate.
Query: Quick one: ΔH of CCC[C@H](NC(=O)[C@H](N)CCCCN)C(=O)N[C@@H](Cc1ccc([N+](=O)[O-])cc1)C(=O)NC(Cc1cscn1)C(=O)N[C@@H](COP(=O)(O)O)C(=O)N[C@@H](Cc1ccc([N+](=O)[O-])cc1)C(=O)N[C@@H](CO)CC(=O)NCCC(=O)N[C@@H](Cc1ccc(O)cc1)C(=O)N[C@@H](CCCCN)C(N)=O (stereo partly drawn) [5a] (H-[dK][Nva][Phe(4-NO2)][ξAla(4-thiazolyl)][pS][Phe(4-NO2)][β3hS][βAla]YK-NH2; N-terminus and C-terminus assumed) ?
Reply: -6,091 kcal mol^-1
